Reference source: patent US20220363662A1

Target: LXR beta (Homo sapiens, UniProt P55055)
Construct: 5 μL of 4×LXR beta-LBD was added to each well (final concentration 5 nM)
Sequence (P55055 222-460 limits assumed): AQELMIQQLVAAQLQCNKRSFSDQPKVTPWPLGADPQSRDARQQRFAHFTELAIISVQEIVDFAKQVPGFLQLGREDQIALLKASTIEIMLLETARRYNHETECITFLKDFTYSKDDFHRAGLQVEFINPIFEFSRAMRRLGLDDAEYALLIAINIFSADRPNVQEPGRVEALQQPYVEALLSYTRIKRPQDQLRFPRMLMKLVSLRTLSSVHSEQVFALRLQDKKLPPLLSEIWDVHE
Assay: LXR beta agonist assay (Lanthascreen TR-FRET)
Settings: LXR beta-LBD 5 nM, read-out: LXR-β EC50
observed_property: EC50

Hello, I would appreciate it if you could give EC50 for each entry below.
1. CN(C)C(=O)c1ccc(-c2ccn(C3CCN(C(=O)C(O)(c4ccccc4)C(F)(F)F)CC3)c(=O)c2)cc1Cl (centres unmarked) [Compound 1.27]
2. CC(C)C(O)(C(=O)N1CCC2(CC1)CN(C1CCN(c3ccc(C(=O)N(C)C)c(Cl)c3)CC1)C2)C(F)(F)F (centres unmarked) [Compound 1.54]
3. CN(C)C(=O)c1ccc(NC2CN(C3CCN(C(=O)[C@](O)(c4ccccc4)C(F)(F)F)CC3)C2)cc1F (single isomer, unassigned) [Compound 1.87]
4. CN(C)C(=O)c1ccc(NC2CN(C3CCN(C(=O)[C@](O)(c4ccccc4)C(F)(F)F)CC3)C2)cc1F (single isomer, unassigned) [Compound 1.86]

Result:
["> 30 µM", "> 30 µM", "> 30 µM", "> 30 µM"]

Provide the reported EC50 of each entry below, same order.
1. CC(C)C(O)(C(=O)N1CCC(N2CCC3(CC2)CN(c2ccc(C(=O)N(C)C)c(Cl)c2)C3)CC1)C(F)(F)F (centres unmarked) [Compound 1.78]
2. CN(C)C(=O)c1ccc(NC2CN(C3CCN(C(=O)C4CCC(F)(F)CC4)CC3)C2)cc1Cl [Compound 1.63]

Result:
1. > 30 µM
2. > 30 µM
